// data source = PubChem BioAssay (NCI)

Tested on: OVCAR-8 ovarian
Assay: NCI tumour cell line growth inhibition, 48 h

[
  {
    "COMPOUND": "O=C(O)c1cnc(-n2[nH]c3c(c2=O)CCCC3)[nH]c1=O",
    "TGI": "> 100 µM"
  },
  {
    "COMPOUND": "CCOC(=O)C(NC(=O)c1ccccc1)(N1CCN(c2cc3c(cc2F)c(=O)c(C(=O)O)cn3CC)CC1)C(F)(F)F (centres undefined)",
    "TGI": "47.3 µM"
  },
  {
    "COMPOUND": "Clc1cccc(NN=Nc2ccc(-c3nc4ccccc4s3)cc2)c1",
    "TGI": "45.9 µM"
  },
  {
    "COMPOUND": "Cc1ccc(-c2nc(N/N=C/c3ccc(O)cc3)c3ccccc3n2)cc1",
    "TGI": "> 100 µM"
  },
  {
    "COMPOUND": "O=[N+]([O-])C(/C=N/Nc1ccccc1)/C=N/Nc1ccccc1",
    "TGI": "> 100 µM"
  },
  {
    "COMPOUND": "Cc1cccc2nc3ccccc3c(Nc3ccc(NS(C)(=O)=O)cc3)c12",
    "TGI": "30.9 µM"
  },
  {
    "COMPOUND": "COC(=O)C1=C(O)[C@H](C(=O)OC)C2(O)C(C(=O)OC)[C@H](c3ccc(OC(=O)C(C)c4ccc(CC(C)C)cc4)cc3)C[C@@H]1[C@@H]2C(=O)OC (some centres undefined)",
    "TGI": "> 50 µM"
  },
  {
    "COMPOUND": "O=C1N2Cc3c4ccc5c3CN3C(=O)N6Cc7c(ccc(c7CN1C6(c1ccccc1)C23c1ccccc1)OCCOCCNCCOCCO4)OCCOCCNCCOCCO5 (centres undefined)",
    "TGI": "> 100 µM"
  },
  {
    "COMPOUND": "O=C(c1ccccc1)C1S(=O)(=O)OCCOS1(=O)=O",
    "TGI": "> 100 µM"
  }
]

---

Test system: SF-295 CNS
Test: NCI tumour cell line growth inhibition, 48 h

[
  {
    "COMPOUND": "O=C1N2Cc3c4ccc5c3CN3C(=O)N6Cc7c(ccc(c7CN1C6(c1ccccc1)C23c1ccccc1)OCCOCCNCCOCCO4)OCCOCCNCCOCCO5 (stereo not given)",
    "TGI": "> 100 µM"
  },
  {
    "COMPOUND": "Cc1nc(C)c(N2CCNCC2)c(=O)[nH]1",
    "TGI": "> 100 µM"
  },
  {
    "COMPOUND": "CCc1ccc(CCC(=O)Nc2ncc(Cc3ccc(Cl)cc3)s2)o1",
    "TGI": "> 100 µM"
  },
  {
    "COMPOUND": "Cc1cccc2nc3ccccc3c(Nc3ccc(NS(C)(=O)=O)cc3)c12",
    "TGI": "47.5 µM"
  },
  {
    "COMPOUND": "O=C(N/N=C\\c1ccc(N(CCCl)CCCl)cc1[N+](=O)[O-])c1cccnc1",
    "TGI": "> 100 µM"
  },
  {
    "COMPOUND": "C[C@]12CC[C@H]3[C@@H](CC=C4C[C@@H](N5CCCC5)CC[C@@]43C)[C@@H]1C/C(=C\\c1cccc(OCCN3CCOCC3)c1)[C@@H]2O",
    "TGI": "> 100 µM"
  },
  {
    "COMPOUND": "CCCCCCCCCCCCCCCCOP(=O)(O)OCC(N)C(=O)O (stereo not given)",
    "TGI": "31.3 µM"
  },
  {
    "COMPOUND": "NNC(=S)NCCNC(=S)NN",
    "TGI": "> 100 µM"
  },
  {
    "COMPOUND": "CCOC(=O)Nc1ccc2c(c1)c(CCCCCCc1nc3ccccc3c3ccc(NC(=O)OCC)cc13)nc1ccccc12",
    "TGI": "> 100 µM"
  },
  {
    "COMPOUND": "CC(N)(Cc1c[nH]c2cccc(F)c12)C(=O)O (stereo not given)",
    "TGI": "> 1000 µM"
  },
  {
    "COMPOUND": "CC1CC/C(=C\\c2ccc(F)cc2)C(=O)/C1=C/c1ccc(F)cc1 (stereo not given)",
    "TGI": "7.38 µM"
  },
  {
    "COMPOUND": "COc1ccc2c3c([nH]c2c1)CCN(CCCC(=O)c1ccc(F)cc1)C3",
    "TGI": "29.4 µM"
  },
  {
    "COMPOUND": "O=C(c1ccc(Cl)cc1)N(C(=S)N1CCN(c2ccccn2)CC1)C1CCCCC1",
    "TGI": "> 100 µM"
  },
  {
    "COMPOUND": "CC(C)(C)OC(=O)CN1CCNCCN(CC(=O)OC(C)(C)C)CCNCC1",
    "TGI": "> 100 µM"
  },
  {
    "COMPOUND": "Cc1ccc(-c2nc(N/N=C/c3ccc(O)cc3)c3ccccc3n2)cc1",
    "TGI": "89.5 µM"
  },
  {
    "COMPOUND": "COC1=CC(=O)CC(C)C12Oc1c(Cl)c(OC)cc(OC)c1C2=O (stereo not given)",
    "TGI": "57.3 µM"
  },
  {
    "COMPOUND": "CCCCCCCCCCCC[C@@H](O)[C@H]1CCC([C@H](O)CCCCC(=O)CCCCCCCC2=C[C@H](C)OC2=O)O1 (stereo not given in full)",
    "TGI": "> 50 µM"
  },
  {
    "COMPOUND": "C=C1C(=O)O[C@@H]2[C@H](O)[C@@H](C)[C@@H]3C=CC(=O)[C@@]3(C)[C@@H](OC(=O)/C(C)=C/C)[C@H]12",
    "TGI": "8.34 µM"
  },
  {
    "COMPOUND": "Cc1ccc(/C=N/Nc2nc(Nc3ccccc3)nc(-n3nc(C)cc3C)n2)cc1",
    "TGI": "14.4 µM"
  },
  {
    "COMPOUND": "C[N+](C)(C)CC(=O)N/N=C(/C(=O)Nc1ccc(Br)cc1)C1C(=O)NC(=O)NC1=O",
    "TGI": "> 100 µM"
  },
  {
    "COMPOUND": "COc1cccc(CC(C)=C(c2ccc(OCCN3CCCCC3)cc2)c2ccc(OCCN3CCCCC3)cc2)c1",
    "TGI": "4.82 µM"
  },
  {
    "COMPOUND": "CC(=O)[O-].Cn1ccnc1CNCc1nccn1C.[Cu+2].[O-][Cl+3]([O-])([O-])[O-]",
    "TGI": "> 100 µM"
  },
  {
    "COMPOUND": "CNC(=O)c1c(NC(=O)c2ccc(C(C)(C)C)cc2)sc2c(CN(C)C)c(O)ccc12",
    "TGI": "3.56 µM"
  },
  {
    "COMPOUND": "S=c1[nH]n2c(CCCCCCCCc3nnc4sc(=S)[nH]n34)nnc2s1",
    "TGI": "> 100 µM"
  },
  {
    "COMPOUND": "Cc1oc2c(c1C)S(=O)(=O)C(C#N)=C(N(C)C)N2",
    "TGI": "> 100 µM"
  },
  {
    "COMPOUND": "CCOC(=O)C(Cc1c[nH]c2cc([N+](=O)[O-])ccc12)NS(=O)(=O)c1ccc2ccccc2c1 (stereo not given)",
    "TGI": "32.5 µM"
  },
  {
    "COMPOUND": "O=C(O)c1cnc(-n2[nH]c3c(c2=O)CCCC3)[nH]c1=O",
    "TGI": "> 100 µM"
  },
  {
    "COMPOUND": "Cc1cc(S(=O)(=O)Nc2nc3ccccc3nc2-c2ccc(Cl)cc2)c(S)cc1Cl",
    "TGI": "35 µM"
  },
  {
    "COMPOUND": "O=C(O)[C@H](NS(=O)(=O)c1ccc(F)cc1)c1ccccc1",
    "TGI": "> 100 µM"
  },
  {
    "COMPOUND": "CC(=O)Nc1c(S(=O)(=O)c2ccccc2)c(C)c(C)n1Cc1ccccc1",
    "TGI": "> 100 µM"
  },
  {
    "COMPOUND": "COC(=O)N[C@H](C(=O)O)C(C)O[Si](C)(C)C(C)(C)C (stereo not given in full)",
    "TGI": "> 100 µM"
  },
  {
    "COMPOUND": "CC(=O)Oc1c(-c2ccccc2)sc2ccccc12",
    "TGI": "40.3 µM"
  },
  {
    "COMPOUND": "Nc1nc([Se])c2ncn(C3OC(CO)C(O)C3O)c2n1 (stereo not given)",
    "TGI": "> 100 µM"
  },
  {
    "COMPOUND": "COc1cc(OC)cc(-c2n/c(=C\\c3c(O)[nH]c4ccc(OC)cc34)cc3c2=Nc2ccccc2-3)c1",
    "TGI": "34 µM"
  },
  {
    "COMPOUND": "N/C(=N\\N=C\\c1ccc(C(F)(F)F)cc1)NO",
    "TGI": "> 100 µM"
  },
  {
    "COMPOUND": "COc1cc2c(c(O)c1OC)CC1CCC(=O)N1C2c1cccc2ccccc12 (stereo not given)",
    "TGI": "41.1 µM"
  },
  {
    "COMPOUND": "O=c1oc2ccccc2cc1-c1cn2c(n1)sc1ccccc12",
    "TGI": "> 100 µM"
  },
  {
    "COMPOUND": "O=C(/C=C/c1ccccc1F)c1ccc(Cl)c(Cl)c1",
    "TGI": "> 100 µM"
  },
  {
    "COMPOUND": "c1ccc(C2OC3(CCC[C@H]4C[C@H]43)O[C@H]2c2ccccc2)cc1 (stereo not given in full)",
    "TGI": "> 100 µM"
  },
  {
    "COMPOUND": "O=C(Nc1cccc([N+](=O)[O-])c1)c1n[nH]n(-c2cccc([N+](=O)[O-])c2)c1=O",
    "TGI": "> 100 µM"
  }
]
